format: physicochemical; details: DI water, 25° C., 0.5 mM, time 4 h
Parameter Condition 2 Conversion (%): see the listing below.
assay.readout: Condition 2 Conversion (%)

compound="CCC(C)CC(=O)OC1=C[C@@H]2N(C)CC[C@]2(c2ccc(OC)c(OC)c2)CC1 (some centres unmarked)" reported_result=0
compound="COc1ccc([C@]23CCN(C)[C@H]2CC2(CC3)OCC(COc3ccccc3OC)O2)cc1OC (some centres unmarked)" reported_result=0
compound=COc1ccc([C@@]23CCC(=NNC(=O)CCCC(=O)O)C[C@@H]2N(C)CC3)cc1OC reported_result=100
compound=COc1ccc([C@]23CCN(C)[C@H]2CC2(CC3)Oc3ccccc3O2)cc1OC reported_result=0
compound=COc1ccc([C@@]23CCC(OC(=O)c4ccc(C(F)(F)F)cc4)=C[C@@H]2N(C)CC3)cc1OC reported_result=0
